- TESTED_SYSTEM: Cytochrome P450 3A4 (Homo sapiens) (UniProt P08684)
- Sequence (P08684 whole entry, looked up): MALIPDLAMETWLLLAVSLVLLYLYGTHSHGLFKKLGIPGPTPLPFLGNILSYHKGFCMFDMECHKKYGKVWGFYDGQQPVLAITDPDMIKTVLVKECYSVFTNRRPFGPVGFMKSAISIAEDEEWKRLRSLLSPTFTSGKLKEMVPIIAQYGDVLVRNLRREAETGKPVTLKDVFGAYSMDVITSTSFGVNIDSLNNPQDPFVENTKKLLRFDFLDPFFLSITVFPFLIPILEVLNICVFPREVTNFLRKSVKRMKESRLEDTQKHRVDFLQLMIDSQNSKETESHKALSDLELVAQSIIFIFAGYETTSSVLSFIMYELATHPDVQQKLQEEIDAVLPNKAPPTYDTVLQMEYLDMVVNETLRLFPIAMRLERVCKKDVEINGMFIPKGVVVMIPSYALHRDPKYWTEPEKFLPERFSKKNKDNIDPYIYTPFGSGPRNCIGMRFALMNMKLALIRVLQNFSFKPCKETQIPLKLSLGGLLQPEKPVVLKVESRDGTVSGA
- PROTOCOL_DESCRIPTION: Cytochrome P450 Family 3 Subfamily A Member 4 (CYP3A4) small molecule antagonists: luciferase reporter qHTS assay (AID 1671201); note: nearly all actives have a fitted effect of over 50% in size
- TEST_SETTINGS: P450-Glo CYP3A4 enzyme, luciferin luminescence, 1 h; series mostly up to 115 µM
Results filed as inconclusive are left out. Activity calls are given as the source filed them. Calls come from the whole dose curve; as a rule, active = well fitted inhibition curve with a large enough effect in the repeat runs; inconclusive = weak or mixed curves; inactive = no such curve, though single readings can be large or run the other way.
Field 'call' accepts active, inactive

Example results:
| MOLECULE | QUALITATIVE_LABEL |
| --- | --- |
| CCCNC(C)C(=O)Nc1ccccc1C (configuration not stated) | inactive |
| Nc1cc(S(=O)(=O)O)cc2cc(S(=O)(=O)O)cc(O)c12 | inactive |

Which result was noted for this molecule in the test: O=C(Cl)c1cccc(C(=O)Cl)c1
inactive

Which result was noted for this molecule in the test: C#CC(C)(CC)OC(=O)c1ccccc1C(=O)O (configuration not stated)
inactive

Which result was noted for this molecule in the test: OCCN1CCNCC1
inactive

Which result was noted for this molecule in the test: CCOc1ccccc1C(N)=O
inactive

Which result was noted for this molecule in the test: CC(=O)C1=C(C)[C@@H]2C[C@@]3(C1)[C@H](C)CC[C@H]3C2(C)C
active

Which result was noted for this molecule in the test: CCC(C)(Oc1ccc(C2(c3ccc(OC(C)(CC)C(=O)O)cc3)CCCCC2)cc1)C(=O)O (configuration not stated)
inactive

Which result was noted for this molecule in the test: CC(C)(C)NCC(O)COc1ccccc1OCC1CCCO1 (configuration not stated)
inactive

Which result was noted for this molecule in the test: Cc1cc(OCCOCC[N+](C)(C)Cc2ccccc2)ccc1C(C)(C)CC(C)(C)C
inactive

Which result was noted for this molecule in the test: Nc1ccc(O)cc1
active

Which result was noted for this molecule in the test: CCN1CCCC1CNC(=O)c1cc(S(=O)(=O)CC)c(N)cc1OC (configuration not stated)
inactive

Which result was noted for this molecule in the test: CCCCN(CCO)CCCC
inactive

Which result was noted for this molecule in the test: COc1cc(C(=S)N2CCOCC2)ccc1O
inactive
